Data origin: patent US20250250265A1

tested_on: recombinant mouse NAPE-PLD (Mus musculus, UniProt Q8BH82)
Construct: hexahistidine (His6) (C); made in house; host or cells: E. coli
Sequence (Q8BH82 1-396): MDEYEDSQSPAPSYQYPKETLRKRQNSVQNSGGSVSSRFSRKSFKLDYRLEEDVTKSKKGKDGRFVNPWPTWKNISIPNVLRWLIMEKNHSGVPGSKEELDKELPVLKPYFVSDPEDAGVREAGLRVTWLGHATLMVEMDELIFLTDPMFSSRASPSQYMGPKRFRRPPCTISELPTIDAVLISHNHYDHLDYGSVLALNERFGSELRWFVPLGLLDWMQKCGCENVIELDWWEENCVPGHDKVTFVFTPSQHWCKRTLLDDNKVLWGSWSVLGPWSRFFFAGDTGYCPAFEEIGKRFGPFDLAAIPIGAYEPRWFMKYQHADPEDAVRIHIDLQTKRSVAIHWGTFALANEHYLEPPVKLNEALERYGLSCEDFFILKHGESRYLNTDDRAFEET
experiment_summary: In vitro fluorescence NAPE-PLD activity assay (HTS/CRC) with recombinant mouse NAPE-PLD and PED-A1
Format: biochemical
run_conditions: Table 3; read-out: In vitro EC50
Just a reminder that ties go to no: only EC50 strictly below 2000 nM counts as yes.

Criterion: EC50 strictly below 2000 nM. Is it met by Cc1ccc2nc(NC(=O)C3CCN(S(=O)(=O)c4ccc(Cl)cc4)CC3)sc2c1 ?
no

What do you have for Cc1ccc2nc(NC(=O)C3CCN(S(=O)(=O)c4ccc(F)cc4)CC3)sc2c1 ?
yes

Record: Cc1cc(C)c2sc(NC(=O)C3CCN(S(=O)(=O)c4ccc(F)cc4)CC3)nc2c1
yes

Cc1cccc2sc(NC(=O)C3CCN(S(=O)(=O)c4cnn(C)c4)CC3)nc12 ?
yes

Also Cc1cc2nc(NC(=O)C3CCN(S(=O)(=O)c4ccc(F)cc4)CC3)sc2cc1C ?
yes

Can you check COc1cccc2sc(NC(=O)C3CCN(S(=O)(=O)c4ccc(F)cc4)CC3)nc12 next?
no

Another: O=C(Nc1nc2ccccc2s1)C1CCN(S(=O)(=O)c2ccc(Cl)cc2)CC1
no

----------
tested_on: NAPE-PLD activity of HepG2 cells (Homo sapiens)
Construct: endogenous in cells
Sequence (Q6IQ20 whole entry): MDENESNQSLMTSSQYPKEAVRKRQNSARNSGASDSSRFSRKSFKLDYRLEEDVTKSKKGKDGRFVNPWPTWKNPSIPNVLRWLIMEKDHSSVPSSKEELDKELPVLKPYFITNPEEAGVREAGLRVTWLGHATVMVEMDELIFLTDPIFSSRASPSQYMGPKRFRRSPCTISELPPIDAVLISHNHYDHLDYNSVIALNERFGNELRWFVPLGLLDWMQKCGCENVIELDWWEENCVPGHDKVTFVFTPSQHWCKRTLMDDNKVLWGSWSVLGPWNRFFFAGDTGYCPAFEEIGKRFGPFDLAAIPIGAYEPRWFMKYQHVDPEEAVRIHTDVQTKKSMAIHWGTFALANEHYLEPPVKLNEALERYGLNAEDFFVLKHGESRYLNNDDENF
experiment_summary: Cell-based NAPE-PLD activity in HepG2 cells (flame-NAPE)
run_conditions: HepG2 cells, flame-NAPE (Table 2, Example 7)
Kindly supply the reported pEC50 values for the records listed here.
Remember, pEC50 is on a log scale: it is -log10 of the molar concentration.

Which pEC50 value belongs to Cc1ccc2sc(NC(=O)C3CCN(S(=O)(=O)c4ccc(F)cc4)CC3)nc2c1C ?
5.05

Next compound: Cc1ccc(S(=O)(=O)N2CCC(C(=O)Nc3nc4c(C)cc(C)cc4s3)CC2)cc1
5.51

Follow-up item: Cc1cc(C)c2sc(NC(=O)C3CCN(S(=O)(=O)c4ccc(F)cc4)CC3)nc2c1
5.62

----------
tested_on: soluble epoxide hydrolase (sEH) (Homo sapiens, UniProt P34913)
Construct: purchased Cayman Chemicals
Sequence (P34913 whole entry): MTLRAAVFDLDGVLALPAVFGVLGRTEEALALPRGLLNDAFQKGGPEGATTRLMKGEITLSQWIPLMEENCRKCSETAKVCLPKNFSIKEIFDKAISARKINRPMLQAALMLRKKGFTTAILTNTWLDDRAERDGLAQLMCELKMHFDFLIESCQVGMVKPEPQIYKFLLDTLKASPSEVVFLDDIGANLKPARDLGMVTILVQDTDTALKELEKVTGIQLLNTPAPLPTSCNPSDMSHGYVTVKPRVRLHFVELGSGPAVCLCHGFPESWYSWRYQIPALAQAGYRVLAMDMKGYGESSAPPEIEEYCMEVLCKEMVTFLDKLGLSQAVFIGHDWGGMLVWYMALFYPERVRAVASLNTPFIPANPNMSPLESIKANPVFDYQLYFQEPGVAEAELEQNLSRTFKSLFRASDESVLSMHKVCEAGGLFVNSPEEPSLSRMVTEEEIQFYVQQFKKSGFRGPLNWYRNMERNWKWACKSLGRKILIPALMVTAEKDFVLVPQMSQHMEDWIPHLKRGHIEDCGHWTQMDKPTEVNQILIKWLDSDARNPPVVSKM
experiment_summary: sEH activity assay (Cayman Chemicals)
Format: biochemical
run_conditions: 33 μM compound, compared to vehicle (0%)
measured_parameter: inhibition at 33 µM (%)
Please state the figure in %; there is no need to write the unit.

For Cc1cc2nc(NC(=O)C3CCN(S(=O)(=O)c4ccc(F)cc4)CC3)sc2cc1C , what is its reported inhibition at 33 µM?
50

And the next one, Cc1cc(F)ccc1S(=O)(=O)N1CCC(C(=O)Nc2nc3c(C)cccc3s2)CC1 [MRJ-058A] ?
85

Try Cc1cc(C)c2sc(NC(=O)C3CCN(S(=O)(=O)c4ccc(F)cc4)CC3)nc2c1 next.
75

For Cc1ccc(S(=O)(=O)N2CCC(C(=O)Nc3nc4c(C)cc(C)cc4s3)CC2)cc1 then?
45

Cool, now Cc1cccc2sc(NC(=O)C3CCN(S(=O)(=O)c4cnn(C)c4)CC3)nc12 [MRJ-058D]
20

Would you mind doing Cc1ccc2nc(NC(=O)C3CCN(S(=O)(=O)c4ccc(F)cc4)CC3)sc2c1 as well?
40

Ok, now Cc1cccc2sc(NC(=O)C3CCN(S(=O)(=O)c4ccc(F)c(Cl)c4)CC3)nc12 [MRJ-058B]
50

// repeat for Cc1cccc2sc(NC(=O)C3CCN(S(=O)(=O)c4cccnc4)CC3)nc12 [MRJ-058C] and report
50

And the next one, Cc1ccc2sc(NC(=O)C3CCN(S(=O)(=O)c4ccc(F)cc4)CC3)nc2c1C ?
70

----------
tested_on: Fatty Acid Amide Hydrolase (FAAH) (Homo sapiens)
Construct: purchased Cayman Chemicals
experiment_summary: FAAH activity assay (Cayman Chemicals)
Format: biochemical
run_conditions: Table 3; 33 μM
Classify as follows. Reported Remaining FAAH Activity (33 μM) greater than or equal to 90%: t. Reported Remaining FAAH Activity (33 μM) below: f.

hey, is Remaining FAAH Activity (33 μM) for this one >= 90%? Cc1cccc2sc(NC(=O)C3CCN(S(=O)(=O)c4cccnc4)CC3)nc12
f

Try Cc1cc(C)c2sc(NC(=O)C3CCN(S(=O)(=O)c4ccc(F)cc4)CC3)nc2c1 next.
f

Okay, and O=C(Nc1nc2ccccc2s1)C1CCN(S(=O)(=O)c2cccnc2)CC1 ?
f

What do you get for Cc1cc2nc(NC(=O)C3CCN(S(=O)(=O)c4ccc(F)cc4)CC3)sc2cc1C ?
f

Cn1cc(S(=O)(=O)N2CCC(C(=O)Nc3nc4ccccc4s3)CC2)cn1 ?
t

----------
tested_on: Fatty Acid Amide Hydrolase (FAAH) (Homo sapiens, UniProt O00519)
Construct: purchased Cayman Chemicals
Sequence (O00519 whole entry): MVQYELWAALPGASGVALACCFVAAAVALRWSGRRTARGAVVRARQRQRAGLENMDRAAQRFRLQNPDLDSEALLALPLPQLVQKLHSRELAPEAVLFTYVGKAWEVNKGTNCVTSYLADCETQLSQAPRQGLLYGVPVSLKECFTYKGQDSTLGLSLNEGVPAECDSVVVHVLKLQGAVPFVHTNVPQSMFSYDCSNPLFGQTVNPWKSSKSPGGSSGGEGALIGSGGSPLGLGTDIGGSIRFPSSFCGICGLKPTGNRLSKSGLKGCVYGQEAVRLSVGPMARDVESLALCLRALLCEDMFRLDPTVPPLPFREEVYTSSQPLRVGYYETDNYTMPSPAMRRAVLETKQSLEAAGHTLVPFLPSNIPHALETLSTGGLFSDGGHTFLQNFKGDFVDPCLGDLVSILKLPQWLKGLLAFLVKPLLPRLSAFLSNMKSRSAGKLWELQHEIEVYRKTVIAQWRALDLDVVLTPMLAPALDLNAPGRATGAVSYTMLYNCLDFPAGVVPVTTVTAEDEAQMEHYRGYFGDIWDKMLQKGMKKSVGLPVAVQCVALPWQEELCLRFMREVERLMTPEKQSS
experiment_summary: FAAH activity assay (Cayman Chemicals)
Assay type: biochemical
run_conditions: 33 μM compound, compared to vehicle (0%)
Can you tell me inhibition at 33 µM for the items I'm about to list?

Please tell me: inhibition at 33 µM of Cc1ccc2nc(NC(=O)C3CCN(S(=O)(=O)c4ccc(F)cc4)CC3)sc2c1 , system Fatty Acid Amide Hydrolase (FAAH) (Homo sapiens, UniProt O00519)?
< 15%

Entry Cc1cccc2sc(NC(=O)C3CCN(S(=O)(=O)c4ccc(F)c(Cl)c4)CC3)nc12 [MRJ-058B] please
< 15%

Queued: Cc1cc(C)c2sc(NC(=O)C3CCN(S(=O)(=O)c4ccc(F)cc4)CC3)nc2c1
< 15%

// next record Cc1cc(F)ccc1S(=O)(=O)N1CCC(C(=O)Nc2nc3c(C)cccc3s2)CC1 [MRJ-058A]
20%

----------
Kindly supply the reported In-cell NAPE-PLD activity in RAW 264.7 (10 μM) with PED-A1 or flame-NAPE as substrate values for the records listed here.
tested_on: NAPE-PLD activity of RAW264.7 macrophages (Mus musculus)
Construct: endogenous in cells; host or cells: RAW264.7
Sequence (Q8BH82 1-396): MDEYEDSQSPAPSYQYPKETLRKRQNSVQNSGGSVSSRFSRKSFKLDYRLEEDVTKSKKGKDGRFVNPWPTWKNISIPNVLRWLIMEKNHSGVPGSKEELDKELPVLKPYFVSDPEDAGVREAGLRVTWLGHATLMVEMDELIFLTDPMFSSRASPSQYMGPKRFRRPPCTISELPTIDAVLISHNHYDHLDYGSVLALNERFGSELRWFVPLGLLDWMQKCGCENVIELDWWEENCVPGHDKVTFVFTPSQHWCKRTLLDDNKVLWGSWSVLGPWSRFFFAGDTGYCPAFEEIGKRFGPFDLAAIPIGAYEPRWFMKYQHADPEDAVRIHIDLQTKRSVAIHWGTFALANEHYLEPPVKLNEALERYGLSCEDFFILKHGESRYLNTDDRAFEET
experiment_summary: Cell-based NAPE-PLD activity in RAW264.7 macrophages (PED-A1 with orlistat)
run_conditions: Table 3; 10 μM
Description: NAPE-PLD activity was measured in cells as previously described, except that FluoroBrite DMEM (Gibco A1896701) was used as media. See Zarrow et al., J. Lipid Res. 63(1): 100156 (2022). For RAW264.7 assays, PED-A1 (3.6 μM final) was used as the substrate with 10 μM orlistat added to inhibit PLA1 activity, while for HepG2 cells, flame-NAPE was used (with no orlistat added).
// note: answer is a bare numeric in %

Missing value: In-cell NAPE-PLD activity in RAW 264.7 (10 μM) with PED-A1 or flame-NAPE as substrate, NAPE-PLD activity of RAW264.7 macrophages (Mus musculus), entry Cc1cccc2sc(NC(=O)C3CCN(S(=O)(=O)c4cccnc4)CC3)nc12 . Fill in?
114

Can you check Cc1ccc2sc(NC(=O)C3CCN(S(=O)(=O)c4ccc(F)cc4)CC3)nc2c1C next?
123

Next: Cc1ccc(S(=O)(=O)N2CCC(C(=O)Nc3nc4c(C)cc(C)cc4s3)CC2)cc1
107

What do we get for Cc1ccc2nc(NC(=O)C3CCN(S(=O)(=O)c4ccc(F)cc4)CC3)sc2c1 ?
107
